- Assay Text: in vitro
- Cond: SD, rat, hepatocyte cytosol, with AST-3021 (AKR1C3 inhibitor), 3 μM, Metabolic parameter t1/2, rat; 2 mM NADPH + 3 μM AST-3021 (inhibition reaction group); 5 μM
Measurement Label: half-life at 5 µM

- Molecule: "O=[N+]([O-])c1ccc(C(OP(=O)(N2CC2)N2CC2)C(F)(F)F)cc1Oc1ccc(-c2ccc(F)cc2)c(F)c1 (racemic) [Compound A]"
  Reported Value: "1.69 h"

----------
- Assay Text: in vitro
- Cond: CD-1, mouse, hepatocyte cytosol, half-life, mouse, with NADPH and AST-3021

- Compound: "O=[N+]([O-])c1ccc(C(OP(=O)(N2CC2)N2CC2)C(F)(F)F)cc1Oc1ccc(-c2ccc(F)cc2)c(F)c1 (racemic)"
  half-life at 5 µM: "2.34 h"

----------
- Tested on: H460 cells
- Assay Text: Inhibition of H460 cancer cell proliferation (CTG, 72 h)
- Assay type: cell-based
- Cond: Homo sapiens, NCI-H460

- Compound: "O=[N+]([O-])c1ccc(C(OP(=O)(N2CC2)N2CC2)C(F)(F)F)cc1Oc1ccc(-c2ccc(F)cc2)c(F)c1 (racemic)"
  System Under Test: "H460 cells"
  IC50, nM: 6.87
- Compound: "O=[N+]([O-])c1ccc([C@@H](OP(=O)(N2CC2)N2CC2)C(F)(F)F)cc1Oc1ccc(-c2ccc(F)cc2)c(F)c1"
  System Under Test: "H460 cells"
  IC50, nM: 23.4
- Compound: "C[C@@H](OP(=O)(N1CC1)N1CC1)c1ccc([N+](=O)[O-])c(Oc2cccc(C(=O)N(C)C)c2)c1"
  System Under Test: "H460 cells"
  IC50, nM: 0.11
- Compound: "O=[N+]([O-])c1ccc([C@H](OP(=O)(N2CC2)N2CC2)C(F)(F)F)cc1Oc1ccc(-c2ccc(F)cc2)c(F)c1"
  System Under Test: "H460 cells"
  IC50, nM: 8.77

----------
- Assay Text: in vitro
- Cond: human, hepatocyte cytosol, half-life, with NADPH, no AST-3021

- Compound: "O=[N+]([O-])c1ccc(C(OP(=O)(N2CC2)N2CC2)C(F)(F)F)cc1Oc1ccc(-c2ccc(F)cc2)c(F)c1 (racemic)"
  U: "min"
  half-life at 5 µM: 49.9

----------
- Assay Text: in vitro
- Cond: machin (cynomolgus), monkey, hepatocyte cytosol, with AST-3021 (AKR1C3 inhibitor), 3 µM, Metabolic parameter t1/2, monkey; 2 mM NADPH + 3 μM AST-3021 (inhibition reaction group); 5 μM

- Compound: "O=[N+]([O-])c1ccc(C(OP(=O)(N2CC2)N2CC2)C(F)(F)F)cc1Oc1ccc(-c2ccc(F)cc2)c(F)c1 (racemic) [Compound A]"
  half-life at 5 µM (h): 2.59

----------
- Assay Text: Blood-brain barrier assay of Compound A (plasma and brain concentration, PK)
- Format: in vivo, CD-1 mice
- Cond: CD-1, mouse, plasma, iv, 1 mg/kg, IV 1 mg/kg; 2 h; individual animals; read-out: Plasma concentration

- Molecule: "O=[N+]([O-])c1ccc(C(OP(=O)(N2CC2)N2CC2)C(F)(F)F)cc1Oc1ccc(-c2ccc(F)cc2)c(F)c1 (racemic) [Compound A]"
  concentration at 2 h: "150 ng/mL"

----------
- Assay Text: in vitro
- Cond: machins, monkey, hepatocyte cytosol, half-life, with NADPH and AST-3021

- Molecule: "O=[N+]([O-])c1ccc(C(OP(=O)(N2CC2)N2CC2)C(F)(F)F)cc1Oc1ccc(-c2ccc(F)cc2)c(F)c1 (racemic) [Compound A]"
  U: "h"
  half-life at 5 µM: 2.59

----------
- Assay Text: in vitro
- Cond: SD, rat, hepatocyte cytosol, Metabolic parameter t1/2, rat; 2 mM NADPH, no AST-3021 (normal reaction / positive control group); 5 μM
Measurement Label: half-life at 5 µM (h)

- Compound: "O=[N+]([O-])c1ccc(C(OP(=O)(N2CC2)N2CC2)C(F)(F)F)cc1Oc1ccc(-c2ccc(F)cc2)c(F)c1 (racemic)"
  Reported Value: 2.18
- Compound: "CC(=O)[C@H]1CC[C@H]2[C@@H]3CCC4=CC(=O)CC[C@]4(C)[C@H]3CC[C@]12C"
  Reported Value: 0.371

----------
- Assay Text: MTD assay and toxicokinetics of Compound A, single 30 min intravenous infusion
- Cond: both, monkey (machins), plasma, iv

- Molecule: "O=[N+]([O-])c1ccc(C(OP(=O)(N2CC2)N2CC2)C(F)(F)F)cc1Oc1ccc(-c2ccc(F)cc2)c(F)c1 (racemic)"
  clearance: "22.3 to 45.3 mL/min/kg"

----------
- Tested on: NCI-H522
- Assay Text: AKR1C3-dependent cytotoxicity, NSCLC cell line NCI-H522
- Format: cell-based
- Cond: Homo sapiens
pIC50: −log10 of the molar value.

- Compound: "C[C@@H](OP(=O)(N1CC1)N1CC1)c1ccc([N+](=O)[O-])c(Oc2cccc(C(=O)N(C)C)c2)c1"
  System Under Test: "NCI-H522"
  Relation Symbol: "<"
  pIC50: 6.00
- Compound: "O=[N+]([O-])c1ccc(C(OP(=O)(N2CC2)N2CC2)C(F)(F)F)cc1Oc1ccc(-c2ccc(F)cc2)c(F)c1 (racemic)"
  System Under Test: "NCI-H522"
  Relation Symbol: "="
  pIC50: 4.85

----------
- Assay Text: in vitro
- Cond: SD, rat, hepatocyte cytosol, Metabolic parameter t1/2, rat; negative control group (no NADPH, no AST-3021); 5 μM

- Molecule: "O=[N+]([O-])c1ccc(C(OP(=O)(N2CC2)N2CC2)C(F)(F)F)cc1Oc1ccc(-c2ccc(F)cc2)c(F)c1 (racemic)"
  half-life at 5 µM: "110 min"

----------
- Assay Text: Blood-brain barrier assay of Compound A (plasma and brain concentration, PK)
- Format: in vivo, CD-1 mice
- Cond: CD-1, mouse, plasma, iv, 1 mg/kg, IV 1 mg/kg; 1 h; individual animals; read-out: Plasma concentration

- Molecule: "O=[N+]([O-])c1ccc(C(OP(=O)(N2CC2)N2CC2)C(F)(F)F)cc1Oc1ccc(-c2ccc(F)cc2)c(F)c1 (racemic)"
  U: "ng/mL"
  concentration at 1 h: 229

----------
- Assay Text: Blood-brain barrier assay of Compound A (plasma and brain concentration, PK)
- Assay type: in vivo, CD-1 mice
- Cond: CD-1, mouse, brain/plasma, iv, 1 mg/kg, IV 1 mg/kg; 2 h; mean of 3 animals; read-out: Ratio (Brain/Plasma), Mean
Measurement Label: Kp at 2 h

- Compound: "O=[N+]([O-])c1ccc(C(OP(=O)(N2CC2)N2CC2)C(F)(F)F)cc1Oc1ccc(-c2ccc(F)cc2)c(F)c1 (racemic)"
  Measurement Label: "Kp at 2 h"
  Reported Value: 0.67

----------
- Assay Text: Blood-brain barrier assay of Compound A (plasma and brain concentration, PK)
- Type: in vivo, CD-1 mice
- Cond: CD-1, mouse, plasma, iv, 1 mg/kg, IV 1 mg/kg; 0.083 h; individual animals; read-out: Plasma concentration
- Method: Three CD-1 mice were administered 1 mg/kg of the test Compound A intravenously at each time point. Blood and brain tissue were taken at 5 min, 15 min, 1 h, 2 h, 4 h and 8 h after administration. […]
Measurement Label: concentration at 0.083 h (ng/mL)

- Compound: "O=[N+]([O-])c1ccc(C(OP(=O)(N2CC2)N2CC2)C(F)(F)F)cc1Oc1ccc(-c2ccc(F)cc2)c(F)c1 (racemic)"
  U: "ng/mL"
  Reported Value: 460

----------
- Assay Text: Blood-brain barrier assay of Compound A (plasma and brain concentration, PK)
- Format: in vivo, CD-1 mice
- Cond: CD-1, mouse, brain/plasma, iv, 1 mg/kg, IV 1 mg/kg; 2 h; individual animals; read-out: Ratio (Brain/Plasma)
Measurement Label: Kp at 2 h

- Molecule: "O=[N+]([O-])c1ccc(C(OP(=O)(N2CC2)N2CC2)C(F)(F)F)cc1Oc1ccc(-c2ccc(F)cc2)c(F)c1 (racemic)"
  Reported Value: 0.71

----------
- Tested on: H460 cancer cells
- Assay Text: H460 proliferation in the presence or absence of AKR1C3 inhibitor AST-3021 (Alamar Blue)
- Format: cell-based, human
- Cond: IC50 with AST-3021 over IC50 without
Measurement Label: Fold

- Compound: "C[C@@H](OP(=O)(N1CC1)N1CC1)c1ccc([N+](=O)[O-])c(Oc2cccc(C(=O)N(C)C)c2)c1 [AST-3424]"
  System Under Test: "H460 cancer cells"
  Reported Value: 128.71
- Compound: "O=[N+]([O-])c1ccc([C@H](OP(=O)(N2CC2)N2CC2)C(F)(F)F)cc1Oc1ccc(-c2ccc(F)cc2)c(F)c1 [B]"
  System Under Test: "H460 cancer cells"
  Reported Value: 513.28
- Compound: "O=[N+]([O-])c1ccc(C(OP(=O)(N2CC2)N2CC2)C(F)(F)F)cc1Oc1ccc(-c2ccc(F)cc2)c(F)c1 (racemic) [Compound A]"
  System Under Test: "H460 cancer cells"
  Reported Value: 367.13
- Compound: "O=[N+]([O-])c1ccc([C@@H](OP(=O)(N2CC2)N2CC2)C(F)(F)F)cc1Oc1ccc(-c2ccc(F)cc2)c(F)c1 [C]"
  System Under Test: "H460 cancer cells"
  Reported Value: 434.76
